TARGET: Ghrelin/GHRP/GHS Receptor (Rattus norvegicus)
Sequence (O08725 whole entry): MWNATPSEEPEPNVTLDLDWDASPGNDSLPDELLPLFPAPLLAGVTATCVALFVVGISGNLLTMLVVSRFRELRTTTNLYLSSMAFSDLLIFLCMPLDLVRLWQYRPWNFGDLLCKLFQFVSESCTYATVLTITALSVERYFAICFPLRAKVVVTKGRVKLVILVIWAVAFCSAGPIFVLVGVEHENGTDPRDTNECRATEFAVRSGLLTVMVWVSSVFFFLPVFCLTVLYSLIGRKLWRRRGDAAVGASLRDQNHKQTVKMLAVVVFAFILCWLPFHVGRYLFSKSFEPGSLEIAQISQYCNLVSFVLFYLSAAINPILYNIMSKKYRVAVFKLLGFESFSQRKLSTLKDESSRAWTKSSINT
TEST METHOD NOTES: In vivo GH release in rat (serum GH by RIA after i.v. peptide)
RUN PARAMETERS: Table 5; peptide antagonist alone 1 μg i.v.
Where no end group is shown, it is not given here. [ ]: non-standard residue; d: D form. d1Nal = N[C@H](Cc1cccc2ccccc12)C(=O)O; Dab = NCC[C@H](N)C(=O)O
Reported Unstimulated Basal GH release from rats values follow for various substances
Use ng/mL as the unit, but write only the number.

The cases that follow already have their Unstimulated Basal GH release from rats on record.
{"SUBSTANCE": "αγAbu-DTrp-DTrp-Ser-NH2 ([Dab][dW][dW]S-NH2; N-terminus assumed; SMILES NCC[C@H](N)C(=O)N[C@H](Cc1c[nH]c2ccccc12)C(=O)N[C@H](Cc1c[nH]c2ccccc12)C(=O)N[C@@H](CO)C(N)=O)", "TARGET": "Ghrelin/GHRP/GHS Receptor (Rattus norvegicus)", "Unstimulated Basal GH release from rats (ng/mL)": 80}
{"SUBSTANCE": "Alaψ[CH2NH]His-DTrp-Ala-Trp-DPhe-Lys-NH2 (AH[dW]AW[dF]K-NH2; also: reduced bond ψ[CH2NH] between Ala1 and His2)", "TARGET": "Ghrelin/GHRP/GHS Receptor (Rattus norvegicus)", "Unstimulated Basal GH release from rats (ng/mL)": 127}
{"SUBSTANCE": "DThr-DαNal-DTrp-DPro-Arg-NH2 ([dT][d1Nal][dW][dP]R-NH2; N-terminus assumed; SMILES C[C@H](O)[C@@H](N)C(=O)N[C@H](Cc1cccc2ccccc12)C(=O)N[C@H](Cc1c[nH]c2ccccc12)C(=O)N1CCC[C@@H]1C(=O)N[C@@H](CCCNC(=N)N)C(N)=O)", "TARGET": "Ghrelin/GHRP/GHS Receptor (Rattus norvegicus)", "Unstimulated Basal GH release from rats (ng/mL)": 60}

Here is the next item to consider.
Quick one: Unstimulated Basal GH release from rats of αγAbu-DTrp-DTrp-Lys-NH2 ([Dab][dW][dW]K-NH2; N-terminus assumed; SMILES NCCCC[C@H](NC(=O)[C@@H](Cc1c[nH]c2ccccc12)NC(=O)[C@@H](Cc1c[nH]c2ccccc12)NC(=O)[C@@H](N)CCN)C(N)=O) ? 57
